- Assay overview: Membrane permeability test using Caco-2 cells with preincubation
- Type: in vitro ADME
- Assay context: Caco-2; preincubation 20 to 24 hours; Apical FaSSIF/HBSS pH 6.0, Basal HBSS 4% BSA pH 7.4; 180 minutes; read-out: Caco2 Papp
Starred links: 1 amine or outer side, 2 acyl side, 3 side chain; linkers in the order of their positions; H or OH if unused. Positions of bridges follow the written chain, without caps; N, C: chain ends. Non-standard residues stand in square brackets, D forms with d. Residues, ends and D or L forms follow the SMILES beside them. *: point of attachment. NMeF = CN[C@@H](Cc1ccccc1)C(=O)O; NMeGABA = CN(CCCC(=O)[*:2])[*:1]; NMeT = CN[C@H](C(=O)O)[C@@H](C)O; hPhe = N[C@@H](CCc1ccccc1)C(=O)O; NMeL = CN[C@@H](CC(C)C)C(=O)O; NMeV = CN[C@H](C(=O)O)C(C)C; d(β3hA) = C[C@@H](N)CC(=O)O; NMeAbu = CC[C@H](NC)C(=O)O; NMeA = CN[C@@H](C)C(=O)O; Piperidide = C1CCN(*)CC1; Abu = CC[C@H](N)C(=O)O; Sar = CNCC(=O)O
The compounds listed here are annotated with their Papp A→B.
Assay endpoint: Papp A→B (×10⁻⁶ cm/s)

Compound: CC[C@H](C)[C@@H]1NC(=O)[C@H](C)N(C)C(=O)CCCN(C)C(=O)C[C@@H](C)NC(=O)[C@H](C(C)C)N(C)C(=O)[C@H](CC(C)C)N(C)C(=O)[C@H](C)N(C)C(=O)[C@H]([C@@H](C)O)N(C)C(=O)[C@H](CCc2ccccc2)NC(=O)[C@H](C(C)C)NC(=O)[C@H](Cc2ccccc2)N(C)C(=O)[C@H](CC)N(C)C(=O)[C@H](C)N(C)C(=O)[C@H](C(C)C)N(C)C1=O [pd059] (cyclo(I[NMeV][NMeA][NMeAbu][NMeF]V[hPhe][NMeT][NMeA][NMeL][NMeV][d(β3hA)][NMeGABA][NMeA]))
Assay endpoint: Papp A→B
Units of measure: ×10⁻⁶ cm/s
Observed measurement: 0.52
--
Compound: CC[C@@H]1NC(=O)[C@H](Cc2ccccc2)N(C)C(=O)[C@H](CC(C)C)NC(=O)CNC(=O)[C@H]([C@@H](C)O)N(C)C(=O)[C@H](CC(C)C)N(C)C(=O)[C@H]([C@@H](C)CC)NC(=O)[C@H](Cc2ccccc2)N(C)C(=O)CN(C)C(=O)C[C@@H](C(=O)N2CCCCC2)NC(=O)[C@H](C(C)C)N(C)C(=O)[C@H](CC(C)C)NC(=O)[C@H](C(C)C)NC(=O)[C@H](C)N(C)C1=O [pd030] ([Sar][NMeF]I[NMeL][NMeT]GL[NMeF][Abu][NMeA]VL[NMeV]D-Piperidide; lactam N-14)
Assay endpoint: Papp A→B
Units of measure: ×10⁻⁶ cm/s
Observed measurement: 0.04

====

- Assay overview: Membrane permeability test using Caco-2 cells with preincubation
- Type: in vitro ADME
- Assay context: Caco-2; preincubation 20 to 24 hours; Apical FaSSIF/HBSS pH 6.0, Basal HBSS 4% BSA pH 7.4; 180 minutes; read-out: Caco2 Papp
Starred links: 1 amine or outer side, 2 acyl side, 3 side chain; linkers in the order of their positions; H or OH if unused. Positions of bridges follow the written chain, without caps; N, C: chain ends. Non-standard residues stand in square brackets, D forms with d. Residues, ends and D or L forms follow the SMILES beside them. *: point of attachment. NMeF = CN[C@@H](Cc1ccccc1)C(=O)O; NMeGABA = CN(CCCC(=O)[*:2])[*:1]; hPhe = N[C@@H](CCc1ccccc1)C(=O)O; NMeL = CN[C@@H](CC(C)C)C(=O)O; NMeV = CN[C@H](C(=O)O)C(C)C; d(β3hA) = C[C@@H](N)CC(=O)O; NMeAbu = CC[C@H](NC)C(=O)O; NMeA = CN[C@@H](C)C(=O)O; Piperidide = C1CCN(*)CC1; dNMeA = CN[C@H](C)C(=O)O; Abu = CC[C@H](N)C(=O)O; Sar = CNCC(=O)O; tBu = CC(C)(C)*
Assay endpoint: Papp A→B (×10⁻⁶ cm/s)

Compound: CC[C@H]1C(=O)N[C@@H](COC(C)(C)C)C(=O)N(C)[C@@H](Cc2ccccc2)C(=O)N(C)[C@@H](C(C)C)C(=O)N[C@H](C)CC(=O)N(C)[C@H](C)C(=O)N(C)[C@@H](CC(C)C)C(=O)N(C)[C@@H](C(C)C)C(=O)N2CCC[C@H]2C(=O)N[C@@H](C(C)C)C(=O)N(C)[C@@H](Cc2ccccc2)C(=O)N[C@@H]([C@@H](C)O)C(=O)N(C)[C@@H](CC(C)C)C(=O)N(C)[C@@H](C)C(=O)N1C [pd058] (cyclo([NMeA][NMeAbu]S(tBu)[NMeF][NMeV][d(β3hA)][dNMeA][NMeL][NMeV]PV[NMeF]T[NMeL]))
Assay endpoint: Papp A→B
Operator symbol: =
Observed measurement: 0.72
//
Compound: CC[C@@H]1NC(=O)[C@H](CC(C)C)N(C)C(=O)[C@H](C)NC(=O)[C@@H]2CCCN2C(=O)[C@H]([C@@H](C)CC)NC(=O)[C@H](CC(C)C)N(C)C(=O)[C@H](CCc2ccccc2)NC(=O)CCCN(C)C(=O)C[C@@H](C(=O)N2CCCCC2)NC(=O)[C@H](CC(C)C)N(C)C(=O)[C@H]([C@@H](C)CC)NC(=O)[C@H](C)N(C)C(=O)[C@H]([C@@H](C)O)NC(=O)[C@H](Cc2ccccc2)N(C)C1=O [pd023] ([NMeGABA][hPhe][NMeL]IPA[NMeL][Abu][NMeF]T[NMeA]I[NMeL]D-Piperidide; lactam N-14)
Assay endpoint: Papp A→B
Operator symbol: =
Observed measurement: 0.03
//
Compound: CC[C@@H]1NC(=O)[C@H](Cc2ccccc2)N(C)C(=O)[C@H](COC(C)(C)C)NC(=O)[C@H](CC(C)C)N(C)C(=O)[C@H](C)N(C)C(=O)[C@@H]2CCCN2C(=O)[C@H]([C@@H](C)O)NC(=O)[C@H](CC(C)C)N(C)C(=O)[C@H]([C@@H](C)CC)NC(=O)[C@H](Cc2ccccc2)N(C)C(=O)[C@H](C(C)C)NC(=O)[C@@H](C)N(C)C(=O)C[C@@H](C)NC(=O)[C@H](C(C)C)N(C)C1=O [pd012] (cyclo([Abu][NMeV][d(β3hA)][dNMeA]V[NMeF]I[NMeL]TP[NMeA][NMeL]S(tBu)[NMeF]))
Assay endpoint: Papp A→B
Operator symbol: =
Observed measurement: 4.3
//
Compound: CC[C@@H]1NC(=O)[C@H](CC(C)C)N(C)C(=O)[C@H](CC(C)C)NC(=O)CN(C)C(=O)[C@H](C(C)C)NC(=O)[C@H](CC(C)C)N(C)C(=O)[C@H](C(C)C)NC(=O)[C@H](Cc2ccccc2)N(C)C(=O)[C@H](C)N(C)C(=O)[C@@H](C)NC(=O)C[C@@H](C)NC(=O)[C@H](C(C)C)N(C)C(=O)[C@H](CC)N(C)C(=O)[C@H](CCc2ccccc2)NC1=O [pd006] (cyclo([Abu][hPhe][NMeAbu][NMeV][d(β3hA)][dA][NMeA][NMeF]V[NMeL]V[Sar]L[NMeL]))
Assay endpoint: Papp A→B
Operator symbol: <
Observed measurement: 0.11

====

- Tested on: Caco-2 cells
- Assay overview: Membrane permeability test using Caco-2 cells with preincubation
- Format: in vitro ADME
- Assay context: Caco-2 cells, preincubation 20 to 24 hours; apical FaSSIF/HBSS 1% DMSO pH 6.0, basal HBSS 4% BSA pH 7.4; basal sample at 180 minutes
Starred links: 1 amine or outer side, 2 acyl side, 3 side chain; linkers in the order of their positions; H or OH if unused. Positions of bridges follow the written chain, without caps; N, C: chain ends. Non-standard residues stand in square brackets, D forms with d. Residues, ends and D or L forms follow the SMILES beside them. *: point of attachment. NMedβ3hAla = C[C@H](CC(=O)[*:2])N(C)[*:1]; NMeF = CN[C@@H](Cc1ccccc1)C(=O)O; NMeT = CN[C@H](C(=O)O)[C@@H](C)O; hPhe = N[C@@H](CCc1ccccc1)C(=O)O; NMeβAla = CN(CCC(=O)[*:2])[*:1]; NMeD = CN[C@@H](CC(=O)O)C(=O)O; NMeL = CN[C@@H](CC(C)C)C(=O)O; NMeV = CN[C@H](C(=O)O)C(C)C; d(β3hA) = C[C@@H](N)CC(=O)O; NMeAbu = CC[C@H](NC)C(=O)O; NMeA = CN[C@@H](C)C(=O)O; Piperidide = C1CCN(*)CC1; Abu = CC[C@H](N)C(=O)O; Sar = CNCC(=O)O; tBu = CC(C)(C)*
Assay endpoint: Caco2 Papp (10^-6 cm/sec)

Molecule: CC[C@H]1C(=O)N[C@@H](COC(C)(C)C)C(=O)N(C)[C@@H](C(C)C)C(=O)N(C)[C@@H](C)C(=O)N(C)[C@H](C)CC(=O)N[C@H](C(C)C)C(=O)N(C)[C@@H](CC(C)C)C(=O)N[C@@H](C)C(=O)N(C)[C@@H](C(C)C)C(=O)N(C)[C@@H](CC(C)C)C(=O)NCC(=O)N(C)[C@@H]([C@@H](C)O)C(=O)N(C)[C@@H](Cc2ccccc2)C(=O)N1C [pd147] (cyclo(A[NMeV][NMeL]G[NMeT][NMeF][NMeAbu]S(tBu)[NMeV][NMeA][NMedβ3hAla][dV][NMeL]))
Assay endpoint: Caco2 Papp (10^-6 cm/sec)
Observed measurement: 0.26 10^-6 cm/sec
//
Molecule: CC[C@@H]1NC(=O)[C@H](C(C)C)N(C)C(=O)[C@H](C(C)C)NC(=O)[C@H](C)N(C)C(=O)CCN(C)C(=O)[C@H](CCc2ccccc2)NC(=O)[C@H](CC(C)C)N(C)C(=O)[C@H]([C@@H](C)CC)NC(=O)CN(C)C(=O)C[C@@H](C(=O)N2CCCCC2)N(C)C(=O)[C@H](CC(C)C)NC(=O)[C@H](CC(C)C)N(C)C(=O)[C@H]([C@@H](C)O)NC(=O)[C@H](Cc2ccccc2)N(C)C1=O [pd088] ([Sar]I[NMeL][hPhe][NMeβAla][NMeA]V[NMeV][Abu][NMeF]T[NMeL]L[NMeD]-Piperidide; lactam N-14)
Assay endpoint: Caco2 Papp (10^-6 cm/sec)
Observed measurement: 0.11 10^-6 cm/sec
//
Molecule: CC[C@@H]1NC(=O)[C@H](Cc2ccccc2)N(C)C(=O)[C@H]([C@@H](C)CC)NC(=O)[C@H](CC(C)C)N(C)C(=O)[C@H](CC(C)C)NC(=O)CCN(C)C(=O)C[C@@H](C(=O)N2CCCCC2)NC(=O)[C@H](CC(C)C)N(C)C(=O)[C@H](C)N(C)C(=O)[C@H]([C@@H](C)O)NC(=O)[C@H](CC(C)C)N(C)C(=O)[C@H](C(C)C)NC(=O)[C@H](Cc2ccccc2)N(C)C1=O [pd101] ([NMeβAla]L[NMeL]I[NMeF][Abu][NMeF]V[NMeL]T[NMeA][NMeL]D-Piperidide; lactam N-13)
Assay endpoint: Caco2 Papp (10^-6 cm/sec)
Observed measurement: 0.16 10^-6 cm/sec
//
Molecule: CC[C@H](C)[C@@H]1NC(=O)[C@H](CC(C)C)N(C)C(=O)C[C@@H](C)NC(=O)[C@H](C(C)C)N(C)C(=O)[C@H](COC(C)(C)C)NC(=O)[C@H](CC)N(C)C(=O)[C@H](Cc2ccccc2)N(C)C(=O)[C@H](CC(C)C)NC(=O)[C@@H]2CCCN2C(=O)[C@H]([C@@H](C)O)N(C)C(=O)[C@H](CC(C)C)N(C)C(=O)[C@H](CC)N(C)C(=O)[C@H](CC(C)C)N(C)C1=O [pd139] (cyclo(I[NMeL][NMeAbu][NMeL][NMeT]PL[NMeF][NMeAbu]S(tBu)[NMeV][d(β3hA)][NMeL]))
Assay endpoint: Caco2 Papp (10^-6 cm/sec)
Observed measurement: 1.24 10^-6 cm/sec
